B1: VH:VL chains; a variant is named by its letters at X, in order (parent)
chain 1: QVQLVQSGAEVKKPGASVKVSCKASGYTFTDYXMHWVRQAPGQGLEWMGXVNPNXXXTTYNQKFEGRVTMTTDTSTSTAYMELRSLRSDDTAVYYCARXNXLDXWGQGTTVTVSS
chain 2: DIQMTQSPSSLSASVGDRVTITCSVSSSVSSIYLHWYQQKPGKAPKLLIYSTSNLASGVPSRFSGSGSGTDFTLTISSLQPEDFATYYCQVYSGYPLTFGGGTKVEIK

# Variants of: B1
# ASSAY COMMENT: yeast display scFab, FACS + sequencing
# RECORDED CONDITIONS: with MET
This is one part of the list. The true hit rate is not given.
ENDPOINT: antigen binding call

>  <ALTERATION>
YRAGGALS

>  <antigen binding call>
binds

$$$$
>  <ALTERATION>
YKGKGDGD

>  <antigen binding call>
binds

$$$$
>  <ALTERATION>
YRAKGVGA

>  <antigen binding call>
binds

$$$$
>  <ALTERATION>
YKRGSSWD

>  <antigen binding call>
binds

$$$$

QUERY: What antigen binding call value was documented for this variant, YKGRGVGD ?
RESULT: binds

QUERY: # antigen binding call lookup, item DRGRDAWF
RESULT: no binding

QUERY: // returns reported antigen binding call for input YKARGSSS
RESULT: binds

QUERY: Please look up its antigen binding call: FRGRGAWF
RESULT: binds

QUERY: # query: antigen binding call of entry YRAKGYGA
RESULT: no binding

QUERY: Recorded antigen binding call for FRGEGAVS , please?
RESULT: binds

QUERY: Fill in: antigen binding call of YRKGGAAY is ___
RESULT: binds

QUERY: # get_value(readout='antigen binding call', item= FAATDSVS )
RESULT: no binding

QUERY: What antigen binding call value was documented for this variant, DRGRGDVV ?
RESULT: no binding

QUERY: antigen binding call for YAGRGDLD ?
RESULT: binds

QUERY: Form field: reported antigen binding call of FRGRGSGF
RESULT: binds

QUERY: Look up antigen binding call: FKGRGSSS
RESULT: binds

QUERY: Fill blank: measured antigen binding call of the variant YRRGGAAY is ____.
RESULT: binds

QUERY: Dear colleague, I am looking for the recorded antigen binding call of the following variant: FKGRGSLS
RESULT: binds
